experiment: Rat IV and PO PK studies; type: in vivo; conditions: male Sprague-Dawley rats, oral 3 mg/kg
attribute_measured: Rat po % F (%)
Numbers only here, please. The scale is %.

Rat po % F measured on C[C@@H]1CN(c2nc(-n3ccc(OCC4(C(F)(F)F)CC4)n3)ccc2C(=O)NS(=O)(=O)c2ccccc2)C(C)(C)C1 = 58

Rat po % F measured on C[C@@H]1CN(c2nc(-n3ccc(OCCC4(C(F)(F)F)CC4)n3)ccc2C(=O)NS(=O)(=O)c2cccc(F)c2)C(C)(C)C1 = 50

Rat po % F measured on C[C@@H]1CN(c2nc(-n3ccc(OCC4(C(F)(F)F)CCC4)n3)ccc2C(=O)NS(=O)(=O)c2ccccc2)C(C)(C)C1 = 41

Rat po % F measured on C[C@@H]1CN(c2nc(-n3ccc(OCC(C)(C)C)n3)ccc2C(=O)NS(=O)(=O)c2cccnc2N)C(C)(C)C1 [Comp. A, reference compound] = 28

Rat po % F measured on C[C@@H]1CN(c2nc(-n3ccc(OCCC4(C(F)(F)F)CC4)n3)ccc2C(=O)NS(=O)(=O)c2ccccc2)C(C)(C)C1 = 63

====

molecular target: F508del-CFTR (Homo sapiens, UniProt P13569, DEL508-508); assay: Membrane potential optical (FLIPR) assay for F508del-CFTR modulators; assay type: cell-based; set-up: expressed in transfected cells; settings: Table 7, Compound 1 and its metabolites; read-out: CFTRdF508 EC50
Sequence (P13569 with tags, fused parts or gaps DEL508-508): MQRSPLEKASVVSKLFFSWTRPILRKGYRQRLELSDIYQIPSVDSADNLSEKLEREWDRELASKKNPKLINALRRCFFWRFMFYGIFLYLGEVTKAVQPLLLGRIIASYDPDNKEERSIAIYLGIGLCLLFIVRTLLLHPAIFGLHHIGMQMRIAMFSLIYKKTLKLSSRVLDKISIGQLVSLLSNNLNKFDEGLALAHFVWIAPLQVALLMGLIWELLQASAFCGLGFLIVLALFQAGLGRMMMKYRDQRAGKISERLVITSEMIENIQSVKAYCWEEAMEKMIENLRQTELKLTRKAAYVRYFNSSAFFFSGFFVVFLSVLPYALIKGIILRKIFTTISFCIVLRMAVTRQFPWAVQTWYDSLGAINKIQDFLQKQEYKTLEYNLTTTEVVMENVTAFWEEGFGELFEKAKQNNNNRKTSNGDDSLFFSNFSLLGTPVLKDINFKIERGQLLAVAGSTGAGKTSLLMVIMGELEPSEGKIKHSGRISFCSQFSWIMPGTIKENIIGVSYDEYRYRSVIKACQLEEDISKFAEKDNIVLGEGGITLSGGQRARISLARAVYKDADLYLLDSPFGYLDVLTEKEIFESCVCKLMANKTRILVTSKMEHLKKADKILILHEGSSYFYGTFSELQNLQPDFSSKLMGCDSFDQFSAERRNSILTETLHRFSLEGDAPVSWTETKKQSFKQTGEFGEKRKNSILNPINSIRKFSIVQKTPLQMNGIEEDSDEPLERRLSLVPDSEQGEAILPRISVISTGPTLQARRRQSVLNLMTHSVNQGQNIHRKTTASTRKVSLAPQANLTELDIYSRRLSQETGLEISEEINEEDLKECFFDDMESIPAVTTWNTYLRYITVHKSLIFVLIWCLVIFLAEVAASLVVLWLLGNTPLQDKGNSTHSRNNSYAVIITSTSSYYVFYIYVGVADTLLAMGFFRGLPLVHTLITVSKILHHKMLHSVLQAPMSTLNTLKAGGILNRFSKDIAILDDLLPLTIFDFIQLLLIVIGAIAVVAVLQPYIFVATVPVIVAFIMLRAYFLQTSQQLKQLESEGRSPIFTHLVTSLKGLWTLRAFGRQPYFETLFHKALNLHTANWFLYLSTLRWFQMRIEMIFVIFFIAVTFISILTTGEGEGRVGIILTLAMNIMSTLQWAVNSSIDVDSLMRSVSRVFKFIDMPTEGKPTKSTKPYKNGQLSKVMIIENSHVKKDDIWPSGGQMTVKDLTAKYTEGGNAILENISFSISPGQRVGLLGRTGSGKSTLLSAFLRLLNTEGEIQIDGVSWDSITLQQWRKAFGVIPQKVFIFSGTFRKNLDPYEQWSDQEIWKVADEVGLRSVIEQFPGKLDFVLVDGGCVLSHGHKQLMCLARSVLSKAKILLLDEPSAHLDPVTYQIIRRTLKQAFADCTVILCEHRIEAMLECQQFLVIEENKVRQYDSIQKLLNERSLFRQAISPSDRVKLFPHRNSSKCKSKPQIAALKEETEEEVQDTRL
pEC50: −log10 of the molar value.
attribute_measured: pEC50

F508del-CFTR (Homo sapiens, UniProt P13569, DEL508-508) pEC50 of CC1CC(C)(C)N2c3nc(-n4ccc(OCCC5(C(F)(F)F)CC5)n4)ccc3C(=O)OC12 (stereo not shown) is < 4.52

====

target: F508del-CFTR (Homo sapiens, UniProt P13569, DEL508-508); assay: Membrane potential optical (FLIPR) assay for F508del-CFTR modulators; assay type: cell-based; set-up: expressed in transfected cells; settings: Table 6; F508del NIH 3T3 cells, assay of Example 5A-A1; read-out: CFTRdF508 EC50
pEC50: −log10 of the molar value.
Hi there, I'd appreciate the recorded pEC50 for every entry that follows.

pEC50 measured on C[C@@H]1CN(c2nc(-n3ccc(OCC4(C(F)(F)F)CC4)n3)ccc2C(=O)NS(=O)(=O)c2ccc(F)cc2)C(C)(C)C1 = 6.00 to 7.00

pEC50 measured on C[C@@H]1CN(c2nc(-n3ccc(OCC4(C(F)(F)F)CC4)n3)ccc2C(=O)NS(=O)(=O)c2ccccc2C#N)C(C)(C)C1 = > 7.00
